System: biotinyl-Trp-oxazolone
PROCEDURE TEXT: self-aminoacylation, catalytic enhancement (BWO) (fold over background); higher = more active; k-Seq, kA / k0A0; sequences stand for … in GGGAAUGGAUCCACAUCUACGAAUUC…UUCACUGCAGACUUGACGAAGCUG
This sample holds only a part of the variants without activity.
Please use T whenever self-aminoacylation is not below 2, and F whenever it is.

RESIDUE CODES: CCACACUUCAAGUAUUCGGUC [Fam1B.1 aminoacylation ribozyme variant]
TARGET SYSTEM: biotinyl-Trp-oxazolone
LABEL VALUE: F
--
RESIDUE CODES: UUUACUCUGGUCAUCGAGUGA [Fam2.1 aminoacylation ribozyme variant]
TARGET SYSTEM: biotinyl-Trp-oxazolone
LABEL VALUE: T
--
RESIDUE CODES: CCACACUUCAGGCUAUCGGUC [Fam1B.1 aminoacylation ribozyme variant]
TARGET SYSTEM: biotinyl-Trp-oxazolone
LABEL VALUE: F
--
RESIDUE CODES: CUACUUCAAACAAUCAGUCUG [Fam1A.1 aminoacylation ribozyme variant]
TARGET SYSTEM: biotinyl-Trp-oxazolone
LABEL VALUE: T
--
RESIDUE CODES: AUUCCCCUGGUCAUCGAGUAA [Fam2.1 aminoacylation ribozyme variant]
TARGET SYSTEM: biotinyl-Trp-oxazolone
LABEL VALUE: F
--
RESIDUE CODES: AUUCCCCUUGUCAUCGAGUGA [Fam2.1 aminoacylation ribozyme variant]
TARGET SYSTEM: biotinyl-Trp-oxazolone
LABEL VALUE: T
--
RESIDUE CODES: UUUCACCUAGGUCAUCUGGUG [Fam2.2 aminoacylation ribozyme variant]
TARGET SYSTEM: biotinyl-Trp-oxazolone
LABEL VALUE: T
--
RESIDUE CODES: ACUACCCUGGUCAUCGAGUGU [Fam2.1 aminoacylation ribozyme variant]
TARGET SYSTEM: biotinyl-Trp-oxazolone
LABEL VALUE: T
